B1: WW domain-binding protein 4, residues 8 to 43; numbered along this chain, O75554 (parent)
chain: QPKKFCDYCKCWIADNRPSVEFHERGKNHKENVAKR

Variants of: B1
experimental protocol: abundance fitness (aPCA) (normalised: wild type 0, dead -1); higher = more abundant; growth selection in yeast, the domain comes from the species named
experimental conditions: Homo sapiens
Binned abundance fitness; ranges: category 1 = under -0.3, category 2 = from -0.3 up to -0.1, category 3 = -0.1 and over

> print(dat)
                                        seq  assigned.class
1  QPKKFCDYCKCHIADNRPSVEFHERGKNHKENVAKR [W12H]      category 3
2  QPKKFCDYCKCWIADNRPSVEFHERGKNHSENVAKR [K30S]      category 2
3  QPKTFCDYCKCWIADNRPSVEFHERGKNHKENVAKR [K4T]      category 3
4  QPKKFCDYCKCWIADNRPSVEFVERGKNHKENVAKR [H23V]      category 1
5  QPKFFCDYCKCWIADNRPSVEFHERGKNHKENVAKR [K4F]      category 2
6  QSKKFCDYCKCWIADNRPSVEFHERGKNHKENVAKR [P2S]      category 3
7  QPKKFCDYCKCWIADNRPSVEFHEAGKNHKENVAKR [R25A]      category 3
8  QPKKFCDYCKCWIADNRPSVEFHERGWNHKENVAKR [K27W]      category 2

Quick check: band for QPKKFCDYCKCWIADNRPSVEFHERGKNHKENDAKR [V33D]
category 2

Quick check: band for QPKKFCDYCKCWIADNRPSEEFHERGKNHKENVAKR [V20E]
category 2

Quick check: band for QPKKFCDYCKCWIADNDPSVEFHERGKNHKENVAKR [R17D]
category 3

Quick check: band for QPKKFCDYEKCWIADNRPSVEFHERGKNHKENVAKR [C9E]
category 1

Quick check: band for QPKKFCDECKCWIADNRPSVEFHERGKNHKENVAKR [Y8E]
category 3

Quick check: band for QPKKFCDYCKCWIPDNRPSVEFHERGKNHKENVAKR [A14P]
category 2

Quick check: band for QPKKFCDYCKCWIADNRPSVEFHEVGKNHKENVAKR [R25V]
category 3

Quick check: band for QPKKFCDYCKCWIADNRPSVEFHERGKNHKENVVKR [A34V]
category 3

Quick check: band for QPKKFCYYCKCWIADNRPSVEFHERGKNHKENVAKR [D7Y]
category 2
